Data origin, for the record: the Deep4Chem optical property database

assay: photoluminescence quantum yield (fraction); solvent given as SMILES; details: in C1CCCCC1
measured_endpoint: photoluminescence quantum yield

given_smiles: CCC1=C(C)C(=O)n2c1cc1c(c(C)c(C(=O)OCC(C)C)n1CC(C)C)c2=O
data_value: 0.05
//
given_smiles: CCCN1C(=O)c2c3c(c4c(c2C1=O)CCc1cc(-c2ccc(N(C)C)cc2)c(OC)cc1-4)-c1cc(OC)c(-c2ccc(N(C)C)cc2)cc1CC3
data_value: 0.752
//
given_smiles: COc1ccc2c(c1)C(=O)c1ccccc1-2
data_value: 0.034
//
given_smiles: C[Si](C)(c1ccc2cc3ccccc3cc2c1)[Si](C)(C)c1ccc2cc3ccccc3cc2c1
data_value: 0.18
//
given_smiles: C(C#Cc1ccc2ccc3cccc4ccc1c2c34)#Cc1cccc2ccccc12
data_value: 0.84
//
given_smiles: CCCCCCCCCCCCCCCCOc1cc(C#Cc2ccc3ccccc3c2)c(OCCCCCCCCCCCCCCCC)cc1C#Cc1ccc(C=C(C#N)C#N)cc1
data_value: 0.9
//
given_smiles: O=Cc1ccc(C2=C3C=c4c(oc5ccccc45)=[N+]3[B-](F)(F)n3c2cc2c4ccccc4oc23)cc1
data_value: 0.63
//
given_smiles: COc1cc(/C=C/c2ccccc2)cc(OC)c1
data_value: 0.18
//
given_smiles: Oc1ccc2ccccc2c1
data_value: 0.51
//
given_smiles: Cc1ccc2nc3c(nc2c1)c(-c1ccccc1)nn3C
data_value: 0.29
//
given_smiles: CN(C)c1ccc(N(C)C)cc1
data_value: 0.21
//
given_smiles: Cc1cc(C)c(B(c2c(C)cc(C)cc2C)N2c3ccccc3C(C)(C)c3ccccc32)c(C)c1
data_value: 0.931
//
given_smiles: C1=Cc2ccc3ccccc3c2N(c2ccccc2)B1c1ccccc1
data_value: 0.04
//
given_smiles: CC1(C)CCc2c(c3ccccc3c3nc4ccccc4nc23)O1
data_value: 0.05
//
given_smiles: Cc1cc2c(o1)c(Br)cc1c(C)cc(=O)oc12
data_value: 0.0004
//
given_smiles: c1ccc(-c2nn(-c3ccccc3)c3nc4ccc(N(c5ccccc5)c5ccccc5)cc4cc23)cc1
data_value: 0.76
//
given_smiles: O=C1OC(c2ccccc2)=N/C1=C\c1ccc(N(c2ccccc2)c2ccccc2)cc1
data_value: 0.031
//
given_smiles: CN(C)c1ccc2nc(-c3ccc(/C=N/c4ccccc4)cc3)sc2c1
data_value: 0.057
//
given_smiles: CC(C)CCC[C@@H](C)[C@H]1CC[C@H]2[C@@H]3CC=C4C[C@@H](OC(=O)Oc5cc(/C=C/C=C/c6ccc(N(C)C)cc6)ccc5[N+](=O)[O-])CC[C@]4(C)[C@H]3CC[C@]12C
data_value: 0.29
//
given_smiles: COc1ccc(/C=C(\C)c2nc3ccccc3s2)cc1
data_value: 0.001
//
given_smiles: CN(C)c1ccc2nc(-c3ccc(C=C(C#N)C#N)cc3)sc2c1
data_value: 0.85
//
given_smiles: CCCCC#Cc1cccc2cc(CCCC)c3cc(-c4cc[b-]5c(c4)c(CCCC)cc4cccc(C#CCCCC)[n+]54)cc[b-]3[n+]12
data_value: 0.12
//
given_smiles: C[Si](C)(C)c1ccc([Si](C)(C)C)c2ccccc12
data_value: 0.33
//
given_smiles: c1ccc(-c2ccc(-c3ccc4c(c3)CCO4)cc2)cc1
data_value: 0.66
//
given_smiles: Cc1cc(C)c(C2=C3C=c4c(c5ccc(C(C)(C)C)cc5c5cc(C(C)(C)C)ccc45)=[N+]3[B-](F)(F)n3c2cc2c4ccc(C(C)(C)C)cc4c4cc(C(C)(C)C)ccc4c23)c(C)c1
data_value: 0.3
//
given_smiles: CCCCCCCCCCCCCCCCOc1cc(C#Cc2ccc3ccccc3c2-c2c(C#Cc3cc(OCCCCCCCCCCCCCCCC)c(C#Cc4ccc(C=C(C#N)C#N)cc4)cc3OCCCCCCCCCCCCCCCC)ccc3ccccc23)c(OCCCCCCCCCCCCCCCC)cc1C#Cc1ccc(C=C(C#N)C#N)cc1
data_value: 0.99
//
given_smiles: O=S1c2ccc(-c3c4ccccc4cc4ccccc34)cc2-c2cc(-c3c4ccccc4cc4ccccc34)ccc21
data_value: 0.31
//
given_smiles: COc1cc2c3c(c4cc(OC)c(OC)c(OC)c4c2c(OC)c1OC)=[N+]1C(=C(c2c(C)cc(C)cc2C)c2cc4c5cc(OC)c(OC)c(OC)c5c5c(OC)c(OC)c(OC)cc5c4n2[B-]1(F)F)C=3
data_value: 0.1
//
given_smiles: CCCCCCCC1=C(C)C(=O)n2c1cc1[nH]c(C(=O)OC)c(C)c1c2=O
data_value: 0.02
//
given_smiles: CN(C)c1ccc(-c2ccc(-c3nc(C#N)c(C#N)n3C)cc2)cc1
data_value: 0.98
//
given_smiles: Nc1cc(N)cc(-c2nc3ccccc3s2)c1
data_value: 0.102
//
given_smiles: CN(C)c1ccc2nc(/C=C/c3cc4c5c(c3)CCCN5CCC4)c(=O)oc2c1
data_value: 0.37
//
given_smiles: CCCCCCOc1ccc(-c2cnc(-c3nnc(-c4ccc(OCCCCCC)cc4)o3)o2)cc1
data_value: 0.82
//
given_smiles: C=CB1C=Cc2ccc3ccccc3c2N1
data_value: 0.42
//
given_smiles: COc1cc(OC)cc(-c2ccc(-c3ccc(C#N)s3)s2)c1
data_value: 0.09
//
given_smiles: CN(C)c1ccc(/C=C/c2nc3c(ccc4ccccc43)s2)cc1
data_value: 0.012
//
given_smiles: CN(C)c1ccc2c(c1)COc1c-2oc2ccccc2c1=O
data_value: 0.5
